- measured_on: ASK1 (Apoptosis Signal-Regulating Kinase 1) (Homo sapiens (Human))
- test_name: ASK1 (Apoptosis Signal-Regulating Kinase 1) TR-FRET Kinase Assay (Biochemical IC50)
- test_context: TR-FRET, biotin-MBP substrate, 20 min pre-incubation, ATP added as 300 μM solution
endpoint_label: IC50 (nM)

[[record]]
compound = "O=C(Nc1cccc(-c2nncn2C2CC2)c1)c1cc(-c2cnc3c(c2)CNCC3)ccn1 [Example 154]"
endpoint_label = "IC50"
u = "nM"
readout_value = 34


I = Nc1ncccc1-c1ccnc(C(=O)Nc2cccc(-c3nncn3C3CC3)c2)c1 [Example 66]
II = Cc1ncn(-c2ccnc(C(=O)Nc3cccc(-c4nncn4C4CC4)n3)c2)c1C [Example 160]
III = COc1ccc(-c2ccc(C3CC3)nc2)cc1C(=O)Nc1cccc(-c2nncn2C2CC2)c1 [Example 271]
// query Arrange by IC50, high to low. Reply: labels, ordered per the request.
// result I, III, II
(I: 86 nM, III: 24 nM, II: 4 nM)

----------
- measured_on: ASK1 (Apoptosis Signal-Regulating Kinase 1) (Homo sapiens (Human), UniProt Q99683)
- Sequence (Q99683 649-946): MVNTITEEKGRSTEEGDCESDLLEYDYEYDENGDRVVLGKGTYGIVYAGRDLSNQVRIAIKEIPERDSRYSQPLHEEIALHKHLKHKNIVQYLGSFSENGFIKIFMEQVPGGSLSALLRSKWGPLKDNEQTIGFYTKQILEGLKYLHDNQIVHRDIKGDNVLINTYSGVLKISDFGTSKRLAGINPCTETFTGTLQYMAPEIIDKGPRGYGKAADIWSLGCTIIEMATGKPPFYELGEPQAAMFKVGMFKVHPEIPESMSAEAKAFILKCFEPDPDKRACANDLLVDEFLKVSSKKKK
- test_name: ASK1 (Apoptosis Signal-Regulating Kinase 1) TR-FRET Kinase Assay (Biochemical IC50)
- test_context: TR-FRET, biotin-MBP substrate, 20 min pre-incubation, ATP added as 300 μM solution
endpoint_label: IC50 (nM)

Study these solved cases before continuing.
[[record]]
compound = "O=C(Nc1cccc(-c2cncn2C2CC2)c1)c1cc(-c2cccnc2)ccn1"
readout_value = 36

[[record]]
compound = "O=C(Nc1cccc(-c2nncn2C2CC2)c1)c1cc(-c2ccc(C3CCC3)nc2)ccn1"
readout_value = 11

[[record]]
compound = "CC(C)NS(=O)(=O)c1ccc(-c2ccnc(C(=O)Nc3cccc(-c4nncn4C4CC4)c3)c2)cc1"
readout_value = 17


A = O=C(Nc1cccc(-c2nncn2C2CC2)n1)c1cccc(-c2cnc3ccccc3c2)c1
B = CN1CCc2c(ncn2-c2ccnc(C(=O)Nc3cccc(-c4nncn4C4CC4)c3)c2)C1C(F)(F)F (centres unmarked)
C = CS(=O)(=O)c1ccccc1-c1ccnc(C(=O)Nc2cccc(-c3nncn3C3CC3)c2)c1
D = O=C(Nc1cccc(-c2nncn2C2CC2)c1)c1cc(N2CCCC(O)C2)ccn1 (centres unmarked)
// query Arrange by IC50, high to low. Reply: labels, ordered per the request.
// result C, D, A, B

----------
- measured_on: ASK1 (Apoptosis Signal-Regulating Kinase 1) (Homo sapiens (Human), UniProt Q99683)
- test_name: ASK1 (Apoptosis Signal-Regulating Kinase 1) TR-FRET Kinase Assay (Biochemical IC50)
- test_context: TR-FRET, biotin-MBP substrate, 20 min pre-incubation, ATP added as 300 μM solution
endpoint_label: IC50 (µM)

Study these solved cases before continuing.
[[record]]
molecule = "O=C(Nc1cccc(-c2nncn2C2CC2)c1)c1cc(-c2nnc(C3CC3)s2)ccn1"
readout_value = 0.107

[[record]]
molecule = "O=C(Nc1cccc(-c2nncn2C2CC2)c1)c1cc(-c2ccc(-c3ccc(Cl)nc3)nc2)ccn1"
readout_value = 0.106


I = O=C(Nc1cccc(-c2nncn2C2CC2)c1)c1cc(-c2cccnc2)ccn1
II = C[C@H](O)Cn1cnnc1-c1cccc(NC(=O)c2cc(-c3cccnc3)ccn2)c1
III = O=C(Nc1ccc(F)c(-c2nncn2C2CC2)c1)c1cc(-c2ccc(C3CC3)nc2)ccn1
// query Your job: order these 3 records by IC50, ascending. Reply: labels, ordered per the request.
// result I, II, III
(I: 0.011 µM, II: 0.087 µM, III: 0.4 µM)

----------
- measured_on: UniProtKB Q99683
- test_name: ASK1 (Apoptosis Signal-Regulating Kinase 1) TR-FRET Kinase Assay (Biochemical IC50)
- test_context: TR-FRET, biotin-MBP substrate, 20 min pre-incubation, ATP added as 300 μM solution
endpoint_label: IC50 (µM)

[[record]]
structure_smiles = "C[C@H](n1cnnc1-c1cccc(NC(=O)c2cc(-n3cnc(C4CC4)c3)ccn2)c1)C(F)(F)F"
endpoint_label = "IC50"
u = "µM"
readout_value = 0.009


I = O=C(Nc1cccc(-c2nncn2CC2CC2)c1)c1cc(-c2cccnc2)ccn1
II = O=C(Nc1cccc(-c2nncn2C2CC2)c1)c1cc(-c2cnc(C3CC3)c(F)c2)ccn1
III = COc1ccc2ncc(-c3ccnc(C(=O)Nc4cccc(-c5nncn5C5CC5)c4)c3)cc2c1
// query Your job: order these 3 records by IC50, ascending. Reply: labels, ordered per the request.
// result III, II, I

----------
- measured_on: ASK1 (Apoptosis Signal-Regulating Kinase 1) (Homo sapiens (Human), UniProt Q99683)
- test_name: ASK1 (Apoptosis Signal-Regulating Kinase 1) TR-FRET Kinase Assay (Biochemical IC50)
- test_context: TR-FRET, biotin-MBP substrate, 20 min pre-incubation, ATP added as 300 μM solution
pIC50: −log10 of the molar value.
endpoint_label: pIC50

[[record]]
compound = "O=C(Nc1cccc(-c2nncn2C2CC2)n1)c1cc(N2CCCC(O)C2)ccn1 (stereo not shown)"
readout_value = 8.00


I = CS(=O)(=O)c1ccc(-c2ccnc(C(=O)Nc3cccc(-c4nncn4C4CC4)n3)c2)cc1
II = Cc1ncccc1-c1ccnc(C(=O)Nc2cccc(-c3nncn3C3CC3)c2)c1
III = O=C(Nc1cccc(-c2nncn2C2CC2)c1)c1cc(-c2cncc3ccccc23)ccn1
// query Your job: order these 3 records by pIC50, ascending. Reply: labels, ordered per the request.
// result II, III, I

----------
- measured_on: ASK1 (Apoptosis Signal-Regulating Kinase 1) (Homo sapiens (Human))
- test_name: ASK1 (Apoptosis Signal-Regulating Kinase 1) TR-FRET Kinase Assay (Biochemical IC50)
- test_context: TR-FRET, biotin-MBP substrate, 20 min pre-incubation, ATP added as 300 μM solution
endpoint_label: IC50 (nM)

Study these solved cases before continuing.
[[record]]
molecule = "CN1CCN(c2ccnc(C(=O)Nc3cccc(-c4nncn4C)c3)c2)CC1 [Example 29]"
readout_value = 443

[[record]]
molecule = "Nc1ncc(-c2ccnc(C(=O)Nc3cccc(-c4nncn4C4CC4)c3)c2)cn1 [Example 25]"
readout_value = 13


A = O=C(Nc1cccc(-c2nncn2C2CC2)n1)c1cc(-n2cnc(C3CC3)c2)ccn1 [Example 170]
B = Cc1cn(-c2ccnc(C(=O)Nc3cccc(-c4nncn4C4CC4)c3)c2)cn1 [Example 42]
// query Larger number for IC50: A , or B ? Refer to your chosen item by its label in the answer.
// result B

----------
- measured_on: ASK1 (Apoptosis Signal-Regulating Kinase 1) (Homo sapiens (Human), UniProt Q99683)
- test_name: ASK1 (Apoptosis Signal-Regulating Kinase 1) TR-FRET Kinase Assay (Biochemical IC50)
- test_context: TR-FRET, biotin-MBP substrate, 20 min pre-incubation, ATP added as 300 μM solution
pIC50: −log10 of the molar value.
endpoint_label: pIC50

1 = COc1ncc(-c2ccnc(C(=O)Nc3cccc(-c4nncn4C4CC4)c3)c2)cn1
2 = C[C@@H](c1ccccc1)n1cnnc1-c1cccc(NC(=O)c2cccc(-n3cnc(C4CC4)c3)c2)n1 [Example 214]
// query Larger number for pIC50: 1 , or 2 ? Refer to your chosen item by its label in the answer.
// result 1
(1: 8.05, 2: 6.80)

I = O=C(Nc1cccc(-c2nncn2C2CC2)c1)c1cc(-c2ccc(C3CC3)cc2)ccn1
II = O=C(Nc1cccc(-c2nncn2C2CC2)c1F)c1cc(-c2cccnc2)ccn1
// query Larger number for pIC50: I , or II ? Refer to your chosen item by its label in the answer.
// result I
(I: 7.66, II: 7.42)

----------
- measured_on: ASK1 (Apoptosis Signal-Regulating Kinase 1) (Homo sapiens (Human))
- test_name: ASK1 (Apoptosis Signal-Regulating Kinase 1) TR-FRET Kinase Assay (Biochemical IC50)
- test_context: TR-FRET, biotin-MBP substrate, 20 min pre-incubation, ATP added as 300 μM solution
pIC50: −log10 of the molar value.
endpoint_label: pIC50

[[record]]
compound = "CC(C)CSc1ccc(-c2ccnc(C(=O)Nc3cccc(-c4nncn4C4CC4)c3)c2)cn1 [Example 132]"
readout_value = 6.82

[[record]]
compound = "O=C(Nc1cccc(-c2nncn2C2CC2)n1)c1cc(-n2cnc(C3CC3)c2)c2ccccc2n1 [Example 226]"
readout_value = 7.80

[[record]]
compound = "NC(=O)c1ccc(-c2ccnc(C(=O)Nc3cccc(-c4nncn4C4CC4)c3)c2)cn1 [Example 51]"
readout_value = 8.10

[[record]]
compound = "O=C(Nc1cccc(-c2nncn2C2CC2)n1)c1ccc(Cl)c(-n2cnc(C3CC3)c2)c1 [Example 227]"
readout_value = 8.10

[[record]]
compound = "CC(C)c1ccc(-c2ccnc(C(=O)Nc3cccc(-c4nncn4C4CC4)c3)c2)cn1 [Example 102]"
readout_value = 8.05


P = O=C(Nc1cccc(-c2nncn2C2CC2)c1)c1cc(-c2cnc3cc[nH]c3c2)ccn1 [Example 128]
Q = Cn1cnc2cc(-c3ccnc(C(=O)Nc4cccc(-c5nncn5C5CC5)c4)c3)cnc21 [Example 143]
// query Larger number for pIC50: P , or Q ? Refer to your chosen item by its label in the answer.
// result P
(P: 8.22, Q: 7.82)

1 = O=C(Nc1cccc(-c2nncn2C2CC2)c1)c1cc(-c2cnc3ccccc3c2)cc(C(F)(F)F)n1 [Example 125]
2 = O=C(Nc1cccc(-c2nncn2C2CC2)c1)c1cc(-n2ncnc2C2CC2)ccn1 [Example 203]
// query Larger number for pIC50: 1 , or 2 ? Refer to your chosen item by its label in the answer.
// result 2
(2: 6.27, 1: 5.84)

A = Cc1ncn(-c2ccnc(C(=O)Nc3cccc(-c4nncn4C4CC4)c3)c2)c1C [Example 43]
B = CC(C)N1CCc2ncc(-c3ccnc(C(=O)Nc4cccc(-c5nncn5C5CC5)c4)c3)cc2C1 [Example 172]
// query Could you check which of A and B has a smaller value for pIC50? Refer to your chosen item by its label in the answer.
// result B

P = Cc1c(C(=O)O)ncn1-c1cccc(C(=O)Nc2cccc(-c3nncn3C3CC3)n2)c1 [Example 213]
Q = O=C(Nc1cccc(-c2nncn2C2CC2)n1)c1cccc(-n2cnc(C(O)C(F)(F)F)c2)c1 (centres unmarked) [Example 208]
R = C[C@@H](n1cnnc1-c1cccc(NC(=O)c2cc(-c3cccnc3)ccn2)c1)C(F)(F)F [Example 62]
// query Arrange by pIC50, high to low. Reply: labels, ordered per the request.
// result Q, P, R
